Each recorded value in this set is attributed to patent US20040171073A1.

# Assay system: murine SR-BI (Mus musculus)
# Construct: expressed in transfected cells; host or cells: ldlA-7 (LDL receptor deficient Chinese hamster ovary cells)
# Assay protocol: Uptake of DiI from DiI-HDL by ldlA[mSR-BI] cells (high throughput screen and concentration dependence)
# Format: cell-based
# Protocol conditions: Test 2
Values of ENDOHDL Test 2 strictly less than 0.7 map to y, and values of at least 0.7 map to n.

As a guide, the following entries are already answered.
molecule="CC(=O)Oc1ccc2ccccc2c1C=O [MIT 9952-13]" assay_system="murine SR-BI (Mus musculus)" assigned_class=y
molecule="CCCCOCCC1CCC/C1=N\\NC(N)=S (stereo not drawn) [MIT 9952-61]" assay_system="murine SR-BI (Mus musculus)" assigned_class=y
molecule="O=C(Nc1ccc(Cl)c([N+](=O)[O-])c1)c1cccc(C(=O)Nc2ccc(Cl)c([N+](=O)[O-])c2)c1 [MIT 9952-219]" assay_system="murine SR-BI (Mus musculus)" assigned_class=y
molecule="Brc1ccc(-c2cc(-c3ccccc3)nc(N3CCOCC3)n2)cc1 [MIT 9952-261]" assay_system="murine SR-BI (Mus musculus)" assigned_class=y
molecule="COc1ccc(C(=O)Nc2ccc(C(C)C)cc2)cc1OC [MIT 9952-277]" assay_system="murine SR-BI (Mus musculus)" assigned_class=y

As a next step, examine the molecule that follows.
Determine if CN(C)c1ccc(C(Cl)(c2ccc(N(C)C)cc2)C2CN3CCC2CC3)cc1.Cl (stereo not drawn) [MIT 9952-137] shows ENDOHDL Test 2 strictly lower than 0.7.
n

###

Parameter: ICCE95 concentration (inhibits [3H]CE uptake by 95%). Scope: all listed entries.
# Assay system: murine SR-BI (Mus musculus, UniProt Q61009)
# Construct: expressed in transfected cells; host or cells: ldlA-7 (LDL receptor deficient Chinese hamster ovary cells)
# Sequence (Q61009 1-509): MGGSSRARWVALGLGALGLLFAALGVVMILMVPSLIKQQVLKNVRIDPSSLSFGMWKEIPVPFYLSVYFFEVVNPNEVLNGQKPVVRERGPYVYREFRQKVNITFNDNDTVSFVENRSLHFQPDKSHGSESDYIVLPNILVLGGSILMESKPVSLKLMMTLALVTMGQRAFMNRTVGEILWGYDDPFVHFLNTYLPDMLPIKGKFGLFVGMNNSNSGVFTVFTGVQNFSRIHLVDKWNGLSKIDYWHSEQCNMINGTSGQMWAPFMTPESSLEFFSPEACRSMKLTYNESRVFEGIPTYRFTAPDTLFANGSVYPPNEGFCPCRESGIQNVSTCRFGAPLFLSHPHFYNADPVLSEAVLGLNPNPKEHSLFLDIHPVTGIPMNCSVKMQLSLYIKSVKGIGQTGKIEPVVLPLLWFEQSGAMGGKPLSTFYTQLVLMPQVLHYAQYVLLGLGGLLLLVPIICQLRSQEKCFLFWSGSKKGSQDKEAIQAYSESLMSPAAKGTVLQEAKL
# Assay protocol: Uptake of [3H]cholesteryl ether from [3H]CE-HDL by ldlA[mSR-BI] cells
# Type: cell-based
# Experimental: Cells were pre-incubated with BLTs for 1 hr (or 2.5 hrs for transferrin, EGF and cholera toxin uptake experiments) and all the experiments were performed at 37° C. Detailed characterization of the BLTs and their effects was performed with compounds whose identities and purities were confirmed by LC-MS. […]

Sample answers from the record:
molecule=C/C(=N\NC(=O)c1ccccc1I)c1ccc(N)cc1 assay_system="murine SR-BI (Mus musculus, UniProt Q61009)" result="50 µM"
molecule=COc1ccccc1NC(=O)Nc1ccc2ccccc2c1 assay_system="murine SR-BI (Mus musculus, UniProt Q61009)" result="50 µM"
molecule="CCCCCCC1CCC/C1=N\\NC(N)=S (centres unmarked)" assay_system="murine SR-BI (Mus musculus, UniProt Q61009)" result="1 µM"

Under murine SR-BI (Mus musculus, UniProt Q61009): ICCE95 concentration (inhibits [3H]CE uptake by 95%) value of CCCCOCCC1CCC/C1=N\NC(N)=S (centres unmarked) ?
1 µM

Under murine SR-BI (Mus musculus, UniProt Q61009): ICCE95 concentration (inhibits [3H]CE uptake by 95%) value of `c1ccc(-c2noc(-c3ccccc3)c3cccc2-3)cc1` ?
50 µM

###

# Assay system: murine SR-BI (Mus musculus, UniProt Q61009)
# Construct: expressed in transfected cells; host or cells: ldlA-7 (LDL receptor deficient Chinese hamster ovary cells)
# Assay protocol: Uptake of DiI from DiI-HDL by ldlA[mSR-BI] cells (high throughput screen and concentration dependence)
# Type: cell-based
# Protocol conditions: Test 1
Given measured ENDOHDL Test 1, output 1 if it is greater than or equal to 1 and -1 if not.

As a guide, the following entries are already answered.
molecule="CC1CC2(C)CC(C(=O)O2)C1C(=O)OCCOc1ccccc1 (stereo not shown)" assigned_class=1
molecule=C/C(=N\NC(=O)c1ccc(-c2ccccc2)cc1)c1cccc(N)c1 assigned_class=-1

Is the recorded value of ENDOHDL Test 1 equal to or greater than 1 for this molecule? CCCCOCCC1CCC/C1=N\NC(N)=S (stereo not shown) [MIT 9952-249]
-1

Is the recorded value of ENDOHDL Test 1 equal to or greater than 1 for this molecule? `COc1ccc([N+](=O)[O-])cc1NC(=O)c1ccccc1`
-1

Is the recorded value of ENDOHDL Test 1 equal to or greater than 1 for this molecule? `COc1ccc(C(=O)Nc2cccc(C(F)(F)F)c2)cc1OC`
-1

Is the recorded value of ENDOHDL Test 1 equal to or greater than 1 for this molecule? `Cc1ccc2c(c1Br)/C(=N/NC(=O)Nc1ccccc1)C(=O)N2`
-1

Is the recorded value of ENDOHDL Test 1 equal to or greater than 1 for this molecule? `Cc1cc(C(=O)N/N=C\c2c(O)ccc3ccccc23)[nH]n1`
-1

Is the recorded value of ENDOHDL Test 1 equal to or greater than 1 for this molecule? `NSCc1nc(-c2ccc(Cl)cc2)no1`
-1

Is the recorded value of ENDOHDL Test 1 equal to or greater than 1 for this molecule? O=C(COc1ccc(Cl)cc1)N/N=C/c1ccc(Cl)cc1 [MIT 9952-31]
1

###

# Assay system: murine SR-BI (Mus musculus, UniProt Q61009)
# Construct: expressed in transfected cells; host or cells: ldlA-7 (LDL receptor deficient Chinese hamster ovary cells)
# Assay protocol: Uptake of DiI from DiI-HDL by ldlA[mSR-BI] cells (high throughput screen and concentration dependence)
# Assay type: cell-based
# Protocol conditions: Test 1; DiI uptake from DiI-HDL, compounds at nominal 10 micromolar, ldlA[mSR-BI] cells
Given measured ENDOHDL Test 1, output Satisfied if it is greater than or equal to 0.6 and Not satisfied if not.

Is the recorded value of ENDOHDL Test 1 equal to or greater than 0.6 for this molecule? O=C(Nc1ccc(-c2nc3ccccc3s2)cc1)c1ccc(Cl)cc1Cl [MIT 9952-284]
Satisfied

Is the recorded value of ENDOHDL Test 1 equal to or greater than 0.6 for this molecule? O=C(/C=C/c1cccc([N+](=O)[O-])c1)Nc1cccc(C(F)(F)F)c1 [MIT 9952-290]
Not satisfied

Is the recorded value of ENDOHDL Test 1 equal to or greater than 0.6 for this molecule? NC(=O)N/N=C/c1ccc(-c2ccc([N+](=O)[O-])cc2)o1 [MIT 9952-326]
Not satisfied

Is the recorded value of ENDOHDL Test 1 equal to or greater than 0.6 for this molecule? COc1ccc2c(c1)c(C(C)=O)c(C)n2-c1ccccc1 [MIT 9952-335]
Not satisfied

Is the recorded value of ENDOHDL Test 1 equal to or greater than 0.6 for this molecule? COc1cccc(C(=O)N/N=C/c2ccc(Cl)cc2Cl)c1 [MIT 9952-285]
Not satisfied

###

Parameter: ENDOHDL Test 2. Scope: all listed entries.
# Assay system: murine SR-BI (Mus musculus, UniProt Q61009)
# Construct: expressed in transfected cells; host or cells: ldlA-7 (LDL receptor deficient Chinese hamster ovary cells)
# Sequence (Q61009 1-509): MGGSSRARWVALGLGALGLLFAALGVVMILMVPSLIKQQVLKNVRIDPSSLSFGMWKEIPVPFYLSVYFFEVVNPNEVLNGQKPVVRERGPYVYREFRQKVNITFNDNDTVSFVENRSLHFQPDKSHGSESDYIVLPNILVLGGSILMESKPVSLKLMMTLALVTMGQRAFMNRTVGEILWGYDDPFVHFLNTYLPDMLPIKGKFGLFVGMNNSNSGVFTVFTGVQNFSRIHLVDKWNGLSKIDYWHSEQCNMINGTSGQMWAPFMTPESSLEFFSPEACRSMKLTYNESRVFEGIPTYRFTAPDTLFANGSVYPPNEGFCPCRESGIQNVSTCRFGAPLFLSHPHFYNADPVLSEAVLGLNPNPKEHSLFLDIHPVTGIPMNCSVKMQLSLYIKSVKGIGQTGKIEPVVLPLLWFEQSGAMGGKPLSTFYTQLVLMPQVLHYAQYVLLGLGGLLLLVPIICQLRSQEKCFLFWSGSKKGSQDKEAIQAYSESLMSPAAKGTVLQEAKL
# Assay protocol: Uptake of DiI from DiI-HDL by ldlA[mSR-BI] cells (high throughput screen and concentration dependence)
# Format: cell-based
# Protocol conditions: Test 2; DiI uptake from DiI-HDL, compounds at nominal 10 micromolar, ldlA[mSR-BI] cells
Please reply with the number alone, leaving off any unit.

Sample answers from the record:
compound="CCOC(=O)C1=C(C)NC(=S)N(C=O)C1c1ccccc1 (stereo not drawn)" measured_quantity="ENDOHDL Test 2" quantitative_readout=0.46
compound=O=C(Nc1sc2c(c1C(=O)NCCc1ccc(O)cc1)CCCC2)c1ccccc1 measured_quantity="ENDOHDL Test 2" quantitative_readout=0.61
compound=Nc1cc2cccnc2c2ncccc12 measured_quantity="ENDOHDL Test 2" quantitative_readout=0.51
compound=O=C(NNC(=O)c1cccc2ccccc12)c1ccc(NC(=O)c2cccc3ccccc23)cc1 measured_quantity="ENDOHDL Test 2" quantitative_readout=0.53
compound=O=[N+]([O-])c1cccc(-c2ccc(C(=S)N3CCCCC3)o2)c1 measured_quantity="ENDOHDL Test 2" quantitative_readout=0.5

So what's the measured ENDOHDL Test 2 for this one? `COc1cccc(C(=O)N/N=C/c2ccc(Cl)cc2Cl)c1`
0.53

So what's the measured ENDOHDL Test 2 for this one? `Br.NS(=O)(=O)c1ccc(Nc2nc(-c3ccc(Cl)cc3)cs2)cc1`
0.67

So what's the measured ENDOHDL Test 2 for this one? `C/C(CCS(=O)(=O)c1ccc(C)cc1)=N\NC(N)=S`
0.59

So what's the measured ENDOHDL Test 2 for this one? CCSC(=O)C(NC1=C(C)C(=O)N1)c1ccccc1 (stereo not drawn)
0.58
